molecular target: Nitric oxide synthase 1 (Rattus norvegicus)
Sequence (P29476 whole entry): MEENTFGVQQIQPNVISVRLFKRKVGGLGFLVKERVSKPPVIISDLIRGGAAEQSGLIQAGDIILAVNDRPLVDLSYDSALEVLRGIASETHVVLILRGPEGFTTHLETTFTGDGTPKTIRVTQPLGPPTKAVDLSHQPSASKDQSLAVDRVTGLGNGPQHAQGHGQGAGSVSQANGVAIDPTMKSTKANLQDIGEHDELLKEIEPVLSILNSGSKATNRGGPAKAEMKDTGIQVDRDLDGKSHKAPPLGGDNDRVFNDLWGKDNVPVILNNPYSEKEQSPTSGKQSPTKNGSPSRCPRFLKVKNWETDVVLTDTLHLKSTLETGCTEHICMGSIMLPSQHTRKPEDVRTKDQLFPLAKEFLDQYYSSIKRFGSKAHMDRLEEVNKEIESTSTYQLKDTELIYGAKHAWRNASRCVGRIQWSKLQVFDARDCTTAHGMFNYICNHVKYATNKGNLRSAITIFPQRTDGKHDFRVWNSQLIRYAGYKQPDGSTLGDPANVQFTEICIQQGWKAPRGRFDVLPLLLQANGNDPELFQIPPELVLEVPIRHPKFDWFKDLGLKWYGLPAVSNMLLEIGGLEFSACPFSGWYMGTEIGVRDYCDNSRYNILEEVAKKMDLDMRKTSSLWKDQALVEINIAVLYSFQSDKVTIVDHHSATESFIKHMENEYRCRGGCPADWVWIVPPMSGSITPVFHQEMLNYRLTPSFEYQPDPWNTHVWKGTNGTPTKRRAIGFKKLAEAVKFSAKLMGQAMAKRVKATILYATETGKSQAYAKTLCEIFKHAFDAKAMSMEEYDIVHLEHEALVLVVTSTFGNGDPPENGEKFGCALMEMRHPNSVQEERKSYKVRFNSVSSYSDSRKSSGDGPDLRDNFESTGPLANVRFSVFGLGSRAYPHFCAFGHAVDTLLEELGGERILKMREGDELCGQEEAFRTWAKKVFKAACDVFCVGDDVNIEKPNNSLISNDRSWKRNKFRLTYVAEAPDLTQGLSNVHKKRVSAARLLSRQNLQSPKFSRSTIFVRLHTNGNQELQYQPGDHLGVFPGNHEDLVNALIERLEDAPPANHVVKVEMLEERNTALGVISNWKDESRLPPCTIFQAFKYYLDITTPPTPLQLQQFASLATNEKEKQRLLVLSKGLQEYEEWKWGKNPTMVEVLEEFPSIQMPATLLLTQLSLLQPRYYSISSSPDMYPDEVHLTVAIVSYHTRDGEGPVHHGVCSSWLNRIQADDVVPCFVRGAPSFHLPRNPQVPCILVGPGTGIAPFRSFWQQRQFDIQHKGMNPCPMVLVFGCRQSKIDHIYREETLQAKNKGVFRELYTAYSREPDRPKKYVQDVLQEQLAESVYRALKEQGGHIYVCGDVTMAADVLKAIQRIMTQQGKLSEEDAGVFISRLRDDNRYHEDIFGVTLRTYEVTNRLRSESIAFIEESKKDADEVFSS
reported property: IC50 (nM)
Answers are plain numbers, in nM.

IC50 reported for this compound Cl.Cl.Cl.N=C(Nc1ccc(CCNCc2cccc(Cl)c2)cc1)c1cccs1 : 35

----------
assay: Selectivity ratio of Ki for mouse recombinant iNOS to Ki for rat recombinant nNOS
Assign Ratio Ki to each entry below.
Give bare numbers.

Reference set (4 entries):
INSERT INTO assay_data (molecule, recorded_number) VALUES
  ('Nc1ccc2ccc(CNCCCc3cccc(F)c3)cc2n1', 538),
  ('Nc1ccc2ccc(CCNCCc3ccc(Cl)cc3)cc2n1', 91),
  ('Nc1ccc2ccc(CNCCc3cccc(F)c3)cc2n1', 124),
  ('Nc1ccc2ccc(CCNCc3cccc(F)c3)cc2n1', 97);

Proceeding to the next molecule to report its Ratio Ki.
Ratio Ki reported for this molecule Nc1ccc2ccc(CCNCCc3ccc(F)cc3)cc2n1 : 280

----------
target: UniProt:P29473
Sequence (P29473 whole entry): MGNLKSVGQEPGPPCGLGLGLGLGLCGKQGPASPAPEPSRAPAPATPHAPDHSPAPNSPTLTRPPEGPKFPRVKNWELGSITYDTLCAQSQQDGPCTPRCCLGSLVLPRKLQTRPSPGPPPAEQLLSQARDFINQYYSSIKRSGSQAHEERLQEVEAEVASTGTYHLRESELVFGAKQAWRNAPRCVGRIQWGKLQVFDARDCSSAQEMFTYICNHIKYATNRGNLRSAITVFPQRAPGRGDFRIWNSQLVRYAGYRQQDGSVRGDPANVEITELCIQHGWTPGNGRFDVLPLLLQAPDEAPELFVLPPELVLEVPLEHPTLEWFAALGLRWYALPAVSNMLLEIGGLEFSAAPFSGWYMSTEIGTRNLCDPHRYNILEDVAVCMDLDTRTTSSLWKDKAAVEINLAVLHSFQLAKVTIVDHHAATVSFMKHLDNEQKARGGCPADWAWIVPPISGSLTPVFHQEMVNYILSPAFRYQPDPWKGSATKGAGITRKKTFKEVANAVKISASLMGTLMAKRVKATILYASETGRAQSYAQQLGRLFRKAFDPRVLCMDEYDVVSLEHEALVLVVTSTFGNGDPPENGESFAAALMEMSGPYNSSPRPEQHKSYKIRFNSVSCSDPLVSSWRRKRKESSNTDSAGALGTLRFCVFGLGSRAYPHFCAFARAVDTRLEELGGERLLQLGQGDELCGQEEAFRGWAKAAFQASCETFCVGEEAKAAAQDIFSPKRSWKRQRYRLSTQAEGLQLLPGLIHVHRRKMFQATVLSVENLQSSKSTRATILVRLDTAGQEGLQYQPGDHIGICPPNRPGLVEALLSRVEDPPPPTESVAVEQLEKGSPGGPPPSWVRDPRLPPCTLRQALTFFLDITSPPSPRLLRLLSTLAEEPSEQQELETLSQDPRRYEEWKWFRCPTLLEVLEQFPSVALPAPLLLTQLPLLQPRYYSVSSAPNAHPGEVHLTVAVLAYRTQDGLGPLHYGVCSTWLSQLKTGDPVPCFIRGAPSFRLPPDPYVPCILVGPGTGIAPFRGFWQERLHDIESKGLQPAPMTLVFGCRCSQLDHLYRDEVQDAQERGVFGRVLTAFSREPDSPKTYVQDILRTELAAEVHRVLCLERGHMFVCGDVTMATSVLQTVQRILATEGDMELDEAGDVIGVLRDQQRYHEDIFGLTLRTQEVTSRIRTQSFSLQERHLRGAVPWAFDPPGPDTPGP
reported property: Ki (µM)
Give bare numbers, in µM.

Entry Nc1ccc2ccc(CNCCCc3cccc(F)c3)cc2n1 : Ki on UniProt:P29473 = 3.69

----------
experiment: Selectivity ratio of Ki for bovine recombinant eNOS to Ki for rat recombinant nNOS
reported property: Ratio Ki
One number for each entry.

Reference set (4 entries):
INSERT INTO assay_data (molecule, reported_property, recorded_number) VALUES
  ('Nc1ccc2ccc(CNCCCc3cccc(F)c3)cc2n1', 'Ratio Ki', 62),
  ('Nc1ccc2ccc(CCNCc3cccc(F)c3)cc2n1', 'Ratio Ki', 30),
  ('Nc1ccc2ccc(CCNCCc3ccc(Cl)cc3)cc2n1', 'Ratio Ki', 47),
  ('Nc1ccc2ccc(CNCCc3cccc(F)c3)cc2n1', 'Ratio Ki', 6.2);

Proceeding to the next compound to report its Ratio Ki.
Ratio Ki reported for this compound Nc1ccc2ccc(CCNCCc3ccc(F)cc3)cc2n1 : 37
